Data provenance: patent US20260124312A1

# Target Under Test: Human EphA2 (in house, 0.95 mol biotin/monomer) (Human) (UniProt P29317)
# Sequence (P29317 25-534 limits assumed): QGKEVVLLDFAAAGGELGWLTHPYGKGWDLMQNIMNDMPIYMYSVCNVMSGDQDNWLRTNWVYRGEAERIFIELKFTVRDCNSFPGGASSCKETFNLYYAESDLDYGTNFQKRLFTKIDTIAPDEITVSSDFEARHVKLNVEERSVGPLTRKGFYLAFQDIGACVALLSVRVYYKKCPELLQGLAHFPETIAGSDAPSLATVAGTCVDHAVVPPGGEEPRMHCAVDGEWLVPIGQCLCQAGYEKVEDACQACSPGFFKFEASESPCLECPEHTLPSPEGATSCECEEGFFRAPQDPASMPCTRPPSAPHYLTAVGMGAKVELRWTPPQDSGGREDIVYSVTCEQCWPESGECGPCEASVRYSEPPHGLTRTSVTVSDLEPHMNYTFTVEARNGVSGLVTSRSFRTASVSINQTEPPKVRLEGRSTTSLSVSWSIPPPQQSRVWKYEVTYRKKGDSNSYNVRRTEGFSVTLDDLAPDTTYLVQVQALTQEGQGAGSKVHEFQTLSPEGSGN
# Test Name: SPR (Biacore), biotinylated human EphA2 on streptavidin chip
*1 amine or outer side, *2 acyl side, *3 side chain or, on linkers, in order; H or OH if unused. Bridges are numbered along the chain shown (N, C = ends). Where no end group is shown, it is not given here. [ ]: non-standard residue; d: D form. TATA = O=C(CC[*:1])N1CN(C(=O)CC[*:2])CN(C(=O)CC[*:3])C1; DM1‑SS(SO3H)‑ = DM1-SS(SO3H)- (SO3H-SPDB) linker/toxin; DM1‑SS‑(Me)‑ = DM1-SS-(Me)- (SPP) linker/toxin; PABC = O=C(OCc1ccc(N[*:1])cc1)[*:2]; Glutaryl = O=C(CCCC(=O)[*:2])[*:1]; hArg = N=C(N)NCCCC[C@H](N)C(=O)O; Cit = NC(=O)NCCC[C@H](N)C(=O)O; βAla = NCCC(=O)O; Sar = CNCC(=O)O
t1/2 values by entry
Answer format: numeric, min implied, no suffix.

>  <Binder>
{MMAE-PABC-Cit-Trp-Glutaryl}-[βAla][Sar][Sar][Sar][Sar][Sar][Sar][Sar][Sar][Sar][Sar]A[hArg]DCPLVNPLCLHPGWTC (linker 15-22-29 via TATA; not fully specified (C-terminus)) [BCY6034]

>  <Units Of Measure>
min

>  <t1/2>
3.2

$$$$

Inquiry: Fill in reported t1/2 for this entry: {DM1‑SS‑(Me)‑}-[βAla][Sar][Sar][Sar][Sar][Sar][Sar][Sar][Sar][Sar][Sar]A[hArg]DCPLVNPLCLHPGWTC (linker 15-22-29 via TATA; not fully specified (C-terminus)) [BCY6032]
Reply text: 2.2

Inquiry: Fill in reported t1/2 for this entry: {DM1‑SS(SO3H)‑}-[βAla][Sar][Sar][Sar][Sar][Sar][Sar][Sar][Sar][Sar][Sar]A[hArg]DCPLVNPLCLHPGWTC (linker 15-22-29 via TATA; not fully specified (C-terminus)) [BCY6082]
Reply text: 4.8
